Value source: ChEMBL document CHEMBL4130478

log10(IC50) listing for selected molecules.
subject.of.test: Trypanothione reductase (Leishmania infantum, UniProt A4HSF7)
Sequence (A4HSF7 whole entry): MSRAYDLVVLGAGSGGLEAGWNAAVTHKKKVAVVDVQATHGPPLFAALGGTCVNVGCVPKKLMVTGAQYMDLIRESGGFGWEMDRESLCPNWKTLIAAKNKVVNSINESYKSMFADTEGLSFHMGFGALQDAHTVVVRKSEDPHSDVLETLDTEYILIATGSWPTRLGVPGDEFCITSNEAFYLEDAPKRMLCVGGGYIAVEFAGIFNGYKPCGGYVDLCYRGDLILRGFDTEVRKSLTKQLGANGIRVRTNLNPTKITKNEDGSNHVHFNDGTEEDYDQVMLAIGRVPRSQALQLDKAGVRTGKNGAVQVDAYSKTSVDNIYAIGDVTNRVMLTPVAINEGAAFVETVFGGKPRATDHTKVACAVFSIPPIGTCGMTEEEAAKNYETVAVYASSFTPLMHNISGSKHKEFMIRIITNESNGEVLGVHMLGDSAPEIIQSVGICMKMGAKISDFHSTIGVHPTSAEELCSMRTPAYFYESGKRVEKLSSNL
protocol.description: Inhibition of oxidoreductase activity of recombinant Leishmania infantum trypanothione reductase pre-incubated for 10 mins before T[S]2 and NADPH addition
Would you kindly interpret these values as log10 of IC50 expressed in µM?

Guide cases for log10(IC50), answers given:
• CCCC[C@H](NC(=O)C[C@H](CCCCN)NC(=O)[C@H](CCCC)NC(=O)[C@H](CO)NC(=O)[C@@H](NC(=O)C[C@H](C)NC(=O)[C@@H](NC(=O)[C@H](CO)NC(=O)[C@H](CCC(N)=O)NC(=O)C[C@@H](NC(=O)[C@@H](NC(=O)[C@H](CCCCN)NC(=O)[C@@H]1CCCN1C(C)=O)[C@@H](C)CC)[C@@H](C)CC)C(C)C)[C@@H](C)CC)C(N)=O = 0.73
• CCCC[C@@H](CC(=O)N[C@@H](CCCCN)C(=O)N[C@@H](CCCC)C(N)=O)NC(=O)[C@H](CO)NC(=O)[C@@H](NC(=O)C[C@H](C)NC(=O)[C@@H](NC(=O)[C@H](CO)NC(=O)[C@H](CCC(N)=O)NC(=O)C[C@H](NC(=O)[C@@H](NC(=O)[C@H](CCCCN)NC(=O)C[C@@H]1CCCN1C(C)=O)[C@@H](C)CC)[C@@H](C)CC)C(C)C)[C@@H](C)CC = 0.43
• CCCC[C@H](NC(=O)[C@H](CO)NC(=O)[C@@H](NC(=O)CNC(=O)[C@@H](NC(=O)[C@H](CO)NC(=O)[C@H](CCC(N)=O)NC(=O)[C@@H](NC(=O)[C@@H](NC(=O)[C@H](CCCCN)NC(=O)[C@@H]1CCCN1C(C)=O)[C@@H](C)CC)[C@@H](C)CC)C(C)C)[C@@H](C)CC)C(N)=O = -0.09
• CC[C@H](C)[C@H](NC(=O)C[C@H](C)NC(=O)[C@@H](NC(=O)[C@H](CO)NC(=O)[C@H](CCC(N)=O)NC(=O)C[C@@H](NC(=O)[C@@H](NC(=O)[C@H](CCCCN)NC(=O)C[C@@H]1CCCN1C(C)=O)[C@@H](C)CC)[C@@H](C)CC)C(C)C)C(=O)O = 1.60
• CCCC[C@H](NC(=O)[C@H](CCCCN)NC(=O)[C@H](CCCC)NC(=O)[C@H](CO)NC(=O)[C@@H](NC(=O)CNC(=O)[C@@H](NC(=O)[C@H](CO)NC(=O)[C@H](CCC(N)=O)NC(=O)[C@@H](NC(=O)[C@@H](NC(=O)[C@H](CCCCN)NC(=O)[C@@H]1CCCN1C(C)=O)[C@@H](C)CC)[C@@H](C)CC)C(C)C)[C@@H](C)CC)C(N)=O = 0.08

Report the value of log10(IC50) obtained on Trypanothione reductase (Leishmania infantum, UniProt A4HSF7) for CCCC[C@@H](CC(=O)N[C@@H](CCCCN)C(=O)N[C@@H](CC(N)=O)C(N)=O)NC(=O)[C@H](CO)NC(=O)[C@@H](NC(=O)CNC(=O)C[C@@H](NC(=O)[C@H](CO)NC(=O)[C@H](CCC(N)=O)NC(=O)C(NC(=O)C[C@@H](NC(=O)[C@H](CCCCN)NC(=O)[C@@H]1CCCN1C(C)=O)[C@@H](C)CC)[C@@H](C)CC)C(C)C)[C@@H](C)CC (single isomer, unassigned) . 1.26

----------
subject.of.test: Trypanothione reductase (Leishmania infantum, UniProt A4HSF7)
protocol.description: Inhibition of dimerization of HIS/FLAG tagged Leishmania infantum trypanothione reductase incubated for 16 hrs in presence of dimerization buffer by ELISA
measure: pIC50
API: returns pIC50 as number; meaning -log10 of concentration in mol/L.

Give a short answer stating reported pIC50 for CCCC[C@@H](CC(=O)N[C@@H](CCCCN)C(=O)N[C@@H](CCCC)C(N)=O)NC(=O)[C@H](CO)NC(=O)[C@@H](NC(=O)CNC(=O)C[C@H](NC(=O)[C@H](CO)NC(=O)[C@H](CCC(N)=O)NC(=O)C[C@H](NC(=O)[C@@H](NC(=O)[C@H](CCCCN)NC(=O)[C@@H]1CCCN1C(C)=O)[C@@H](C)CC)[C@@H](C)CC)C(C)C)[C@@H](C)CC . 4.99

Give a short answer stating reported pIC50 for CCCC[C@@H](CC(=O)N[C@@H](CCCCN)C(=O)N[C@@H](CC(N)=O)C(N)=O)NC(=O)[C@H](CO)NC(=O)[C@@H](NC(=O)CNC(=O)C[C@@H](NC(=O)[C@H](CO)NC(=O)[C@H](CCC(N)=O)NC(=O)C(NC(=O)C[C@@H](NC(=O)[C@H](CCCCN)NC(=O)[C@@H]1CCCN1C(C)=O)[C@@H](C)CC)[C@@H](C)CC)C(C)C)[C@@H](C)CC (single isomer, unassigned) . 5.01

Give a short answer stating reported pIC50 for CC[C@H](C)[C@H](CC(=O)N[C@@H](CCC(N)=O)C(=O)N[C@@H](CO)C(=O)N[C@@H](CC(=O)NCC(=O)N[C@H](C(N)=O)[C@@H](C)CC)C(C)C)NC(=O)[C@@H](NC(=O)[C@H](CCCCN)NC(=O)[C@@H]1CCCN1C(C)=O)[C@@H](C)CC . 4.38

Give a short answer stating reported pIC50 for CC[C@H](C)[C@H](NC(=O)C[C@H](C)NC(=O)[C@@H](NC(=O)[C@H](CO)NC(=O)[C@H](CCC(N)=O)NC(=O)C[C@@H](NC(=O)[C@@H](NC(=O)[C@H](CCCCN)NC(=O)C[C@@H]1CCCN1C(C)=O)[C@@H](C)CC)[C@@H](C)CC)C(C)C)C(=O)O . 4.30

----------
protocol.description: Selectivity index, ratio of LC50 for cytotoxicity against human THP1 cells to LC50 for leishmanicidal activity against Leishmania infantum amastigotes
Format: toxicity, cell-based
study.conditions: THP-1 cells, read-out: RatioLC50
measure: selectivity ratio
Answer with the value's number alone.

* CCCCCCCCCCCCCCCCCCOC[C@H](COP(=O)([O-])OCC[N+](C)(C)C)OC [(R)-EDELFOSINE] | 1.7

# ---- query molecule ----
Give a short answer stating reported selectivity ratio for CCCCCCCCCCCCCCCCOP(=O)([O-])OCC[N+](C)(C)C . 9.5

----------
protocol.description: Cytotoxicity against human THP1 cells after 24 hrs by propidium iodide staining based flow cytometry
Assay type: cell-based
study.conditions: THP-1 cells, read-out: LC50
measure: CC50 at 24 h (µM)
Field: numeric (µM). Do not append units.

Give a short answer stating reported CC50 at 24 h for CCCCCCCCCCCCCCCCCCOC[C@H](COP(=O)([O-])OCC[N+](C)(C)C)OC [(R)-EDELFOSINE] . 1

----------
subject.of.test: Proteinase K (Engyodontium album)
Sequence (P06873 whole entry): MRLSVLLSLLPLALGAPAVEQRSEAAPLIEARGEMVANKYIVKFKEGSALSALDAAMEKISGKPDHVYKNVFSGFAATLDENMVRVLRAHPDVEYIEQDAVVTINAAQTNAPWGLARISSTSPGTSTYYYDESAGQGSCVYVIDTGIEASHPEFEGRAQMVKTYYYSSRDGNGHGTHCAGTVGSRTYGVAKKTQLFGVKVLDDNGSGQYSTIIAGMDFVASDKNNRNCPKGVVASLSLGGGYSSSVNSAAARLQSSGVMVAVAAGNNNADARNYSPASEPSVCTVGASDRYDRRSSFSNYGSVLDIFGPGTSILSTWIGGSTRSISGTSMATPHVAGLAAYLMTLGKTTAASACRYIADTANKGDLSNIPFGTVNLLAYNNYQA
protocol.description: Stability assessed as Tritirachium album proteinase K-mediated compound degradation by measuring half life at 50 uM by HPLC method
Assay type: ADME
study.conditions: parengyodontium album
measure: half-life at 50 µM (h)
Field: numeric (h). Do not append units.

Guide cases for half-life at 50 µM, answers given:
* CCCC[C@H](NC(=O)[C@H](CCCCN)NC(=O)[C@H](CCCC)NC(=O)[C@H](CO)NC(=O)[C@@H](NC(=O)CNC(=O)[C@@H](NC(=O)[C@H](CO)NC(=O)[C@H](CCC(N)=O)NC(=O)[C@@H](NC(=O)[C@@H](NC(=O)[C@H](CCCCN)NC(=O)[C@@H]1CCCN1C(C)=O)[C@@H](C)CC)[C@@H](C)CC)C(C)C)[C@@H](C)CC)C(N)=O | 0.383
* CCCC[C@@H](CC(=O)N[C@@H](CCCCN)C(=O)N[C@@H](CCCC)C(N)=O)NC(=O)[C@H](CO)NC(=O)[C@@H](NC(=O)C[C@H](C)NC(=O)[C@@H](NC(=O)[C@H](CO)NC(=O)[C@H](CCC(N)=O)NC(=O)C[C@H](NC(=O)[C@@H](NC(=O)[C@H](CCCCN)NC(=O)C[C@@H]1CCCN1C(C)=O)[C@@H](C)CC)[C@@H](C)CC)C(C)C)[C@@H](C)CC | 0.383
* CCCC[C@@H](CC(=O)N[C@@H](CCCCN)C(=O)N[C@@H](CCCC)C(N)=O)NC(=O)[C@H](CO)NC(=O)[C@@H](NC(=O)CNC(=O)C[C@H](NC(=O)[C@H](CO)NC(=O)[C@H](CCC(N)=O)NC(=O)C[C@H](NC(=O)[C@@H](NC(=O)[C@H](CCCCN)NC(=O)[C@@H]1CCCN1C(C)=O)[C@@H](C)CC)[C@@H](C)CC)C(C)C)[C@@H](C)CC | 3.58
* CC[C@H](C)[C@H](NC(=O)CNC(=O)[C@@H](NC(=O)C[C@H](CO)NC(=O)[C@H](CCC(N)=O)NC(=O)[C@@H](NC(=O)C[C@@H](NC(=O)[C@H](CCCCN)NC(=O)[C@@H]1CCCN1C(C)=O)[C@@H](C)CC)[C@@H](C)CC)C(C)C)C(N)=O | 3.97

# ---- query molecule ----
Give a short answer stating reported half-life at 50 µM for CCCC[C@H](NC(=O)C[C@H](CCCCN)NC(=O)[C@H](CCCC)NC(=O)C[C@H](CO)NC(=O)C[C@@H](NC(=O)CNC(=O)[C@@H](NC(=O)C[C@H](CO)NC(=O)C[C@H](CCC(N)=O)NC(=O)[C@@H](NC(=O)[C@@H](NC(=O)C[C@H](CCCCN)NC(=O)C[C@@H]1CCCN1C(C)=O)[C@@H](C)CC)[C@@H](C)CC)C(C)C)[C@@H](C)CC)C(N)=O . 5.28
